# studyTarget: T1, human glycophorin A on human red blood cells or red blood cell membranes (human, UniProt P02724 20-150)
# T1 construct: whole, on cells; also called hRBC; human RBC membranes
# T1 sequence (looked up): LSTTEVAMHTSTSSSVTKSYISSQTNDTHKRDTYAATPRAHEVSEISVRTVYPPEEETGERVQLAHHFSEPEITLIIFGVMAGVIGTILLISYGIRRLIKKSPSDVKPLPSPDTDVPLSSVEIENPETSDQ
# testMethodNotes: scFv on intact human RBC, unbound scFv by ELISA; 120 min after 200-fold dilution
parameterMeasured: percentage of input scFv antibody bound (%)
Write the answer as a number in %, unit excluded.

Prompt: Which percentage of input scFv antibody bound value is on record for TPP-7782 scFv with C-terminal 6xHIS tag (scFv) scFv: DIQLTQSPSFLSASVGDRVTITCRASSSVRYIYWFQQKPGKAPKLLIYATSFRQSGVPSRFSGSGSGTEYTLTISSLQPEDFATYYCHQRNSFPYTFGQGTKLEIKGGGGSGGGGSGGGGSGGGGSEVQLVQSGAEVKKPGASVKVSCKASGYTFTTYTIHWVRQAPGQGLEWMGYINPSSGYTRYNPKFKGRVTMTRDKSTSTAYMELRSLRSDDTAVYYCQTGTRDYWGQGTTVTVSSHHHHHH ?
Response: 85

Data provenance: patent US20190359687A1
